system under test: NEU1 (Homo sapiens)
Construct: made in house; host or cells: HEK293 (lentiviral transduction), crude lysate
run description: IC50 inhibition assay using 4MU-NANA as the substrate, NEU1
Assay type: biochemical
test parameters: 4MU-NANA as the substrate; read-out: IC50 NEU1
Exercise: for every item that follows, state its recorded pIC50.
Give bare numbers, as −log10 of the molar value.

Reference set, count: 5
[[record]]
molecule = "CCCCCC(=O)N[C@H]1[C@H]([C@H](O)[C@H](O)CNC(C)=O)OC(C(=O)O)=C[C@@H]1O"
observed = 6.85

[[record]]
molecule = "O=C(O)C1=C[C@H](O)[C@@H](NC(=O)c2ccccc2)[C@H]([C@H](O)[C@H](O)CO)O1"
observed = 4.96

[[record]]
molecule = "CCCCCC(=O)N[C@H]1[C@H]([C@H](O)[C@H](O)CNC(=O)CCC)OC(C(=O)O)=C[C@@H]1O"
observed = 5.92

[[record]]
molecule = "CC(=O)N[C@@H]1C(O)C=C(C(=O)O)OC1C(O)C(O)CNC(=O)c1ccccc1 (stereo partly drawn)"
observed = 5.60

[[record]]
molecule = "CCCCC(=O)N[C@@H]1C(O)C=C(C(=O)O)OC1C(O)C(O)CO (stereo partly drawn)"
observed = 6.00


For each entry beneath this line, provide reported pIC50.
1. [N-]=[N+]=NCC(=O)N[C@@H]1C(O)C=C(C(=O)O)OC1C(O)C(O)CO (stereo partly drawn)
2. CCCCCC(=O)N[C@H]1[C@H]([C@H](O)[C@H](O)CNC(=O)CC)OC(C(=O)O)=C[C@@H]1O
3. CCCC(=O)N[C@@H]1C(O)C=C(C(=O)O)OC1C(O)C(O)CO (stereo partly drawn)
4. CN(C)c1ccc(-c2cn(CC(=O)N[C@@H]3C(O)C=C(C(=O)O)OC3C(O)C(O)CO)nn2)cc1 (stereo partly drawn)

Return:
1: 4.62; 2: 6.40; 3: 5.08; 4: 3.96

Enquiry: Identify the reported pIC50 for the following entry. CC(=O)N[C@@H]1C(O)C=C(C(=O)O)OC1C(O)C(O)Cn1cc(-c2ccc(NC(=O)c3ccccc3)cc2)nn1 (stereo partly drawn)
Return: 3.72

----------
system under test: NEU1 (Homo sapiens)
Construct: made in house; host or cells: HEK293 (lentiviral transduction), crude lysate
run description: IC50 inhibition assay using 4MU-NANA as the substrate, NEU1
Format: biochemical
test parameters: 4MU-NANA as the substrate; read-out: IC50 NEU1
Description: Two weeks after transduction cells were harvested and a crude lysate showing ˜200 nmol/h mg of sialidase activity used in experiments. Assays were performed with duplicates for each point and IC50 was obtained by plotting the data with Graphpad™ Prism 5.0.
pIC50: −log10 of the molar value.
Decision: pIC50 >= 4 yields criterion met, all other cases yield criterion not met.

Enquiry: Hi, just wondering whether `CC(=O)Nc1ccc(C(=O)NC[C@@H](O)[C@@H](O)[C@@H]2OC(C(=O)O)=C[C@H](O)[C@H]2NC(C)=O)cc1` shows pIC50 of 4 or higher.
Return: criterion met

Enquiry: Hi, just wondering whether `CC(=O)N[C@H]1[C@H]([C@H](O)[C@H](O)Cn2cc(-c3ccc(C(F)(F)F)cc3)nn2)OC(C(=O)O)=C[C@@H]1O` shows pIC50 of 4 or higher.
Return: criterion not met

Enquiry: Hi, just wondering whether Cc1ccc(-c2cn(CC(=O)N[C@@H]3C(O)C=C(C(=O)O)OC3C(O)C(O)CO)nn2)cc1 (stereo partly shown) shows pIC50 of 4 or higher.
Return: criterion not met

Enquiry: Hi, just wondering whether COc1ccc(-c2cn(CC(=O)N[C@@H]3C(O)C=C(C(=O)O)OC3C(O)C(O)CO)nn2)cc1 (stereo partly shown) shows pIC50 of 4 or higher.
Return: criterion not met

Enquiry: Hi, just wondering whether `CC(C)CC(=O)N[C@H]1[C@H]([C@H](O)[C@H](O)CO)OC(C(=O)O)=C[C@@H]1O` shows pIC50 of 4 or higher.
Return: criterion met

Enquiry: Hi, just wondering whether `CCCCC(=O)NC[C@@H](O)[C@@H](O)[C@@H]1OC(C(=O)O)=C[C@H](O)[C@H]1NC(=O)CC` shows pIC50 of 4 or higher.
Return: criterion met

Enquiry: Hi, just wondering whether `CCCCCCC(=O)N[C@H]1[C@H]([C@H](O)[C@H](O)CO)OC(C(=O)O)=C[C@@H]1O` shows pIC50 of 4 or higher.
Return: criterion met
